- System: MDA-MB-231
- method_summary: Antiproliferative activity against human MDA-MB-231 cells incubated for 72 hrs by MTT assay
- Type: functional, cell-based
- experimental_parameters: MDA-MB-231, 72 h
observable: IC50 (µM)
Give the value, in units of µM, as a plain number.

Ask: Send back MDA-MB-231 IC50 of CC1=CC[C@@]2(O)[C@H](CC[C@]2(C)O)C(C)(C)[C@@H]1CC[C@H]1[C@]2(C)CC[C@H](OC(=O)c3ccc(Cl)c(Cl)c3)C(C)(C)O[C@H]2CC[C@@]1(C)O only.
Result: 7.5

* * *

- experimental_target: Focal adhesion kinase 1 (Homo sapiens, UniProt Q05397)
- Sequence (Q05397 whole entry): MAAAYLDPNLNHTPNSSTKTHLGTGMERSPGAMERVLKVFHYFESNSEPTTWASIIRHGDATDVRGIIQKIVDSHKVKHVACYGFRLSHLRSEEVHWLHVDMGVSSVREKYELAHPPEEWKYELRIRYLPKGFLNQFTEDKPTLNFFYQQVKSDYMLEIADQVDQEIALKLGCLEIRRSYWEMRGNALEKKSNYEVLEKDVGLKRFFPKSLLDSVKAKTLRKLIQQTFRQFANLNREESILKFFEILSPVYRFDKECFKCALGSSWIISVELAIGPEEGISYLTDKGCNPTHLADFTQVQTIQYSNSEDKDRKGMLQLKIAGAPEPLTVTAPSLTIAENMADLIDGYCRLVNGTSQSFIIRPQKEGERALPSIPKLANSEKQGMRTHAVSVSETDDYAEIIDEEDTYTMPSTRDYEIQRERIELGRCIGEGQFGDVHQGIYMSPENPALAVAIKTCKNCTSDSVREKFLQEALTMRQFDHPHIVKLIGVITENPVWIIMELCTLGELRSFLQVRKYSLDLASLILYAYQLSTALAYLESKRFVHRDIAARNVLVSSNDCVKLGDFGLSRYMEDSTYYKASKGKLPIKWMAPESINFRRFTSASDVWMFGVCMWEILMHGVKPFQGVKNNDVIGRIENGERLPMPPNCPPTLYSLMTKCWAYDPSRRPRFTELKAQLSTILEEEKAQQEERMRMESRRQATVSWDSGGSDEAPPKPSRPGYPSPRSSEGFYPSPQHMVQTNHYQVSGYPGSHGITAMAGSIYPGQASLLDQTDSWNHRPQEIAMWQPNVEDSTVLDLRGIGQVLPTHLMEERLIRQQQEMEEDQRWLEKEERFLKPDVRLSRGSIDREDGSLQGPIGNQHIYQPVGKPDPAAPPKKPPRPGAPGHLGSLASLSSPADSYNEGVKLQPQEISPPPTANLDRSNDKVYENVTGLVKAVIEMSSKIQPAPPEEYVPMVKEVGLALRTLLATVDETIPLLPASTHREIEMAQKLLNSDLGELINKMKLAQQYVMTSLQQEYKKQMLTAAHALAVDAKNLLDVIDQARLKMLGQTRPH
- method_summary: Inhibition of FAK in human A549 cells assessed as reduction in phosphorylation at Y397 residue incubated for 30 mins by Western blot analysis
observable: IC50 (nM)
Expressed in nM, but write only the number.

Ask: Consider the compound CONC(=O)c1ccccc1Nc1cc(Nc2cc(C)nn2C(C)C)ncc1Cl and give its recorded IC50.
Result: 12

* * *

- experimental_target: Focal adhesion kinase 1 (Homo sapiens, UniProt Q05397)
- method_summary: Inhibition of FAK in human OVCAR8 cells assessed as reduction in phosphorylation at Y397 residue incubated for 30 mins by Western blot analysis
observable: IC50 (nM)
Give the number; nM is assumed, so skip it.

Ask: Provide only the value of recorded IC50 for CONC(=O)c1ccccc1Nc1cc(Nc2cc(C)nn2C(C)C)ncc1Cl
Result: 15

* * *

- experimental_target: Focal adhesion kinase 1 (Homo sapiens)
- method_summary: Inhibition of FAK in human U87MG cells assessed as reduction in phosphorylation at Y397 residue incubated for 30 mins by Western blot analysis
observable: IC50 (nM)
Report the value in nM with no unit label.

Ask: Output IC50 of CONC(=O)c1ccccc1Nc1cc(Nc2cc(C)nn2C(C)C)ncc1Cl [GSK-2256098]
Result: 8.5

* * *

- experimental_target: Focal adhesion kinase 1 (Homo sapiens, UniProt Q05397)
observable: pIC50
For clarity, pIC50 is expressed as the negative log10 of concentration in mol/L.

Ask: For the compound CS(=O)(=O)c1cccc(CNc2nc(Nc3ccc4c(c3)CC(=O)N4)ncc2C(F)(F)F)c1 , give its measured pIC50 value.
Result: 8.40

* * *

- experimental_target: UniProtKB Q14289
- Sequence (Q14289 whole entry): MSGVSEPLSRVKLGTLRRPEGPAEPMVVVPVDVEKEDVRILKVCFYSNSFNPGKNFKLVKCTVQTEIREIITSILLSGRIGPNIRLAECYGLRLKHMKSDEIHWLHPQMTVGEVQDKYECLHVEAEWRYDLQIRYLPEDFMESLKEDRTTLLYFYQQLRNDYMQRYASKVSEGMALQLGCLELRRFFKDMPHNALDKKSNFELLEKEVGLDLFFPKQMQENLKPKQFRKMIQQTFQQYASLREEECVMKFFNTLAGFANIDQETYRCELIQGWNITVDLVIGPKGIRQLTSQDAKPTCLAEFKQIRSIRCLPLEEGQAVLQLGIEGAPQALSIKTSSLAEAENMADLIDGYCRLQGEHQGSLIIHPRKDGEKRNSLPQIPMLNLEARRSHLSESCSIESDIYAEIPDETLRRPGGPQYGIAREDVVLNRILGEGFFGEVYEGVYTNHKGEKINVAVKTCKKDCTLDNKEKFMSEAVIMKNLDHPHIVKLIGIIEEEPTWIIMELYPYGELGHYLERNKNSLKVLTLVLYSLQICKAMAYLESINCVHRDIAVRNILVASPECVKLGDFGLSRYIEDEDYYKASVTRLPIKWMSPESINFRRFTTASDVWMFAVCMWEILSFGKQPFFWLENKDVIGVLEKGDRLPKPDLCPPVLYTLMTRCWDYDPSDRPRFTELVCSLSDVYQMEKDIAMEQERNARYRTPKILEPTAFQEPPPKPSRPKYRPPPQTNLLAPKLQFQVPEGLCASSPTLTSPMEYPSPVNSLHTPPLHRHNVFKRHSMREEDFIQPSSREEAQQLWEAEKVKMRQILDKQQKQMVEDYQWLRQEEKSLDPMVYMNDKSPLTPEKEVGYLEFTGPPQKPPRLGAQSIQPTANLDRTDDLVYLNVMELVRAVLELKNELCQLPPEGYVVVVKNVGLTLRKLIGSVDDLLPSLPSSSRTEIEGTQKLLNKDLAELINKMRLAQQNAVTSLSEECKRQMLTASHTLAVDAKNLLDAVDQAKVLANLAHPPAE
observable: IC50
Form field: result (number plus unit)

Ask: Fill: IC50 (UniProtKB Q14289) for this molecule CS(=O)(=O)c1cccc(CNc2nc(Nc3ccc4c(c3)CC(=O)N4)ncc2C(F)(F)F)c1
Result: 1000 nM
